These data points were gathered from paper doi:10.1101/2025.09.23.678079v1.

- experimentDescription: in vitro
- conditionDescription: human, plasma
measuredAttribute: fraction unbound

>>> print(df.to_string())
                                 smilesrepr  quantitativeresult
0  CO[C@H]1CCCn2c(-c3cc4c(c5c3CNC5=O)Nc3ccc(N5CCOCC5)cc3C4(C)C)cnc21               0.046

====

- systemUnderTest: CYP2C9 (Homo sapiens, UniProt P11712)
- Sequence (P11712 whole entry): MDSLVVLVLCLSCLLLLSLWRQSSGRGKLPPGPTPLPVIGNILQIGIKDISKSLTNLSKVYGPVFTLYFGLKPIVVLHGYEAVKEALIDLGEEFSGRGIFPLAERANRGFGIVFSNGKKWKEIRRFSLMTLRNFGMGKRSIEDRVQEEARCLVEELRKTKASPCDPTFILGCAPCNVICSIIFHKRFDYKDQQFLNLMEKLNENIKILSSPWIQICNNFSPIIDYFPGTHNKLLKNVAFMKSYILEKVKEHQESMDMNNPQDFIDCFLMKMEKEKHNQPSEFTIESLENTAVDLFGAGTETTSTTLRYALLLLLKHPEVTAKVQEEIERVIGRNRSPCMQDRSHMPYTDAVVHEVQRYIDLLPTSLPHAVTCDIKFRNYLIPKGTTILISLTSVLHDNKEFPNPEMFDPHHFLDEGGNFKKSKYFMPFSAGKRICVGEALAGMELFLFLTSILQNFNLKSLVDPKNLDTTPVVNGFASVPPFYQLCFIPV
- experimentDescription: in vitro
measuredAttribute: inhibition at 10 µM

                                   molecule    measuredattribute  result
0  CO[C@H]1CCCn2c(-c3cc4c(c5c3CNC5=O)Nc3ccc(N5CCOCC5)cc3C4(C)C)cnc21 [compound 6, Cmpd. 6]  inhibition at 10 µM   24.5%

====

- systemUnderTest: CYP1A2 (Homo sapiens)
- Sequence (P05177 1-516): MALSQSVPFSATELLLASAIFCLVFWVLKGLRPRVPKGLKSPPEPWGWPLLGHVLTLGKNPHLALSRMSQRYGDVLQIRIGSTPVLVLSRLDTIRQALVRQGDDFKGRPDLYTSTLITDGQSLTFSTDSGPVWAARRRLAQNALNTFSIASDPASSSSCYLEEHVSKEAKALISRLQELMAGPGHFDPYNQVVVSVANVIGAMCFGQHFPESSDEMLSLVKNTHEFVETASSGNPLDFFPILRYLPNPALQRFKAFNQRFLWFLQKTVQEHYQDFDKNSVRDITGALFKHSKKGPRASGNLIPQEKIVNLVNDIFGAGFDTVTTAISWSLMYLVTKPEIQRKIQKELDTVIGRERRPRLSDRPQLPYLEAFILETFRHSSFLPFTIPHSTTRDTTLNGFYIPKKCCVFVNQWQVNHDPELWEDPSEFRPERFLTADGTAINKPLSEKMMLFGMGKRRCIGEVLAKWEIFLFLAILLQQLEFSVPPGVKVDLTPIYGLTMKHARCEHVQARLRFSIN
- experimentDescription: in vitro
measuredAttribute: inhibition at 10 µM (%)

>>> print(df.to_string())
                                   molecule    measuredattribute  quantitativeresult
0  CO[C@H]1CCCn2c(-c3cc4c(c5c3CNC5=O)Nc3ccc(N5CCOCC5)cc3C4(C)C)cnc21 [compound 6, Cmpd. 6]  inhibition at 10 µM                   9

====

- experimentDescription: physchem
- conditionDescription: aqueous buffer, pH 7.4, aqueous buffer
measuredAttribute: solubility (µM)

>>> df
                                   molecule  quantitativeresult
0  CO[C@H]1CCCn2c(-c3cc4c(c5c3CNC5=O)Nc3ccc(N5CCOCC5)cc3C4(C)C)cnc21 [compound 6, Cmpd. 6]                56.3

====

- experimentDescription: in vitro
- conditionDescription: rat, hepatocytes
measuredAttribute: half-life (h)

In [3]: df
Out[3]:
                                 smilesrepr  quantitativeresult
0  CO[C@H]1CCCn2c(-c3cc4c(c5c3CNC5=O)Nc3ccc(N5CCOCC5)cc3C4(C)C)cnc21                3.93

====

- systemUnderTest: hERG (Homo sapiens, UniProt Q12809, species not given)
- Sequence (Q12809 whole entry): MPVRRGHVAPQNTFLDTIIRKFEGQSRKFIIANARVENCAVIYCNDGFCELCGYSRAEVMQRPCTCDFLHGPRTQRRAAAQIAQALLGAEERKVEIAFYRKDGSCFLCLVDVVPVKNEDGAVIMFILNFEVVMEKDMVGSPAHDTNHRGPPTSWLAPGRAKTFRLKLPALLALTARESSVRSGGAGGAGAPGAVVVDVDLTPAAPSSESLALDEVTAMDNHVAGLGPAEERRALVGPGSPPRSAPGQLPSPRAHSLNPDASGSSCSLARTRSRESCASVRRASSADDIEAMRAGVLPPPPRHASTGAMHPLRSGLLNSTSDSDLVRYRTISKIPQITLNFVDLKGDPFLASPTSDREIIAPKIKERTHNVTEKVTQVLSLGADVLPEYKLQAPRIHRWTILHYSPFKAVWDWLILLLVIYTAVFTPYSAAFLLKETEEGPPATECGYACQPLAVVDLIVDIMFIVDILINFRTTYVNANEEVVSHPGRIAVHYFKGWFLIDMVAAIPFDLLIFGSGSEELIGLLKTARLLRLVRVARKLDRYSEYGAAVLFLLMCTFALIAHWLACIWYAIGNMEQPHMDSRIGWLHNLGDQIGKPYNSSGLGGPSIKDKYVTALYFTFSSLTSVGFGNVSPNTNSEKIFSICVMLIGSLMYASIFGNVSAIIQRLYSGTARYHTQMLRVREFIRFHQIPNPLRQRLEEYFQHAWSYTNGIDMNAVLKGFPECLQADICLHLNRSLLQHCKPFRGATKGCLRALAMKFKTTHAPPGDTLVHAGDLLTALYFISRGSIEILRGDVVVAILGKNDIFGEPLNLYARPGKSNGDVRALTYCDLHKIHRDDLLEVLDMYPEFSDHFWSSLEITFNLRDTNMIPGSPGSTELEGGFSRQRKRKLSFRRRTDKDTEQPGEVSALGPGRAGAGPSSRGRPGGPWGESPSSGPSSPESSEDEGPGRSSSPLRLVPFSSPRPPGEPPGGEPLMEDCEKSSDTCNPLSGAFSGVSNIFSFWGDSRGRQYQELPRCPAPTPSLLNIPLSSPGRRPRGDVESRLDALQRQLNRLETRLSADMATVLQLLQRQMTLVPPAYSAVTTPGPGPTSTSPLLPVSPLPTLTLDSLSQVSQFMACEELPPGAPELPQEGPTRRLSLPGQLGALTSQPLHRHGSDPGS
- experimentDescription: in vitro
measuredAttribute: inhibition at 10 µM (%)

In [3]: df
Out[3]:
                                   compound    measuredattribute  measurementunit  quantitativeresult
0  CO[C@H]1CCCn2c(-c3cc4c(c5c3CNC5=O)Nc3ccc(N5CCOCC5)cc3C4(C)C)cnc21 [compound 6, Cmpd. 6]  inhibition at 10 µM                %                74.5

====

- systemUnderTest: CYP2D6 (Homo sapiens, UniProt P10635)
- Sequence (P10635 whole entry): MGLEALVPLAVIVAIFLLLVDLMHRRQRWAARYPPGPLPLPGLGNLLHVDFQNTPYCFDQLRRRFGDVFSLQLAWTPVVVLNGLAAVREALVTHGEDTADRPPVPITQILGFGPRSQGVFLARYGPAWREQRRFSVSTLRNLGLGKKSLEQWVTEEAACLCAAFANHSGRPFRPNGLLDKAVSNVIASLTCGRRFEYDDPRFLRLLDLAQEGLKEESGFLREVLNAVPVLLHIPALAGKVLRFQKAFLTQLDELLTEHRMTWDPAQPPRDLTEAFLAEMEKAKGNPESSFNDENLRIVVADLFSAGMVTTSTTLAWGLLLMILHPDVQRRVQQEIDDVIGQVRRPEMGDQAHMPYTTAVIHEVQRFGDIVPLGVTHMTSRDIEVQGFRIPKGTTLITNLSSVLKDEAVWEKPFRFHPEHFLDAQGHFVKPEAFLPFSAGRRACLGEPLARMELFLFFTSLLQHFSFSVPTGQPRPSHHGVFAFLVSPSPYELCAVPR
- experimentDescription: in vitro
measuredAttribute: inhibition at 10 µM (%)

>>> df
                                   molecule  quantitativeresult
0  CO[C@H]1CCCn2c(-c3cc4c(c5c3CNC5=O)Nc3ccc(N5CCOCC5)cc3C4(C)C)cnc21 [compound 6, Cmpd. 6]                20.7
